Measured activation at 10 µM by item
target: human Nav1.1 (Homo sapiens, UniProt P35498); construct: host or cells: HEK293; experiment: Amplification of Nav1.1-derived voltage-dependent sodium current (Nav1.1 current), cell line stably expressing human Nav1.1, automated patch clamp; type: cell-based; settings: 10 μmol/L compound; change of the area under the curve of Nav1.1 current (Test Result 1); read-out: Nav1.1 current amplification rate (%)
Numbers only here, please. The scale is %.

Previously resolved entries follow.
INSERT INTO measurements (compound, readout_name, readout_value) VALUES
  ('COc1cc(=O)n(CC(=O)Nc2ccc3ocnc3c2)nc1N1CCC2(CCCC2)C1', 'activation at 10 µM', 209),
  ('Cc1cc(N2CCC3(CCC3)C2)nn(CC(=O)Nc2ccc3c(c2)OCC3)c1=O', 'activation at 10 µM', 131),
  ('O=C(Cn1nc(N2CCCC3(CCC3)C2)ccc1=O)Nc1cccc(-c2nccs2)c1', 'activation at 10 µM', 44),
  ('CC1(C)CN(c2ccc(=O)n(CC(=O)Nc3ccc4ocnc4c3)n2)CCC12CC2(F)F (centres unmarked)', 'activation at 10 µM', 64);

Now turn to the next compound.
If you can, please state the reported activation at 10 µM value of CC1CCN(c2ccc(=O)n(CC(=O)Nc3ccc(C(=O)N4CCCC4)nc3)n2)CC1 .
25

###

target: human Nav1.1 (Homo sapiens, UniProt P35498); construct: host or cells: HEK293; assay: Amplification of Nav1.1-derived voltage-dependent sodium current (Nav1.1 current), cell line stably expressing human Nav1.1, automated patch clamp; type: cell-based; conditions: 10 μmol/L compound; change of the area under the curve of Nav1.1 current (Test Result 1); read-out: Nav1.1 current amplification rate (%)
Readout Name: activation at 10 µM (%)
Numbers only here, please. The scale is %.

Previously resolved entries follow.
INSERT INTO assay_data (substance_smiles, readout_name, readout_value) VALUES
  ('O=C(Cn1nc(N2CCC3(CCC3)C2)ccc1=O)N1CCc2cc(N3CCOCC3)ccc21', 'activation at 10 µM', 35),
  ('Cc1c(N2CCC(C)(C)CC2)nn(CC(=O)Nc2ccn3ccnc3c2)c(=O)c1C', 'activation at 10 µM', 44),
  ('O=C(Cn1nc(N2CCC3(CCCC3)C2)ccc1=O)Nc1cccc(-n2ccnc2)c1', 'activation at 10 µM', 246);

If you can, please state the reported activation at 10 µM value of O=C(Cn1nc(N2CCC3(CCC3)CC2)ccc1=O)Nc1ccc2ocnc2c1 .
167

###

Measured Nav1.5 current amplification rate (%) by item
target: human Nav1.5 (Homo sapiens, UniProt Q14524); construct: expressed in transfected cells; host or cells: CHO-K1 (T-REx System, ThermoFisher Scientific); test: Amplification of Nav1.5-derived voltage-dependent sodium current (Nav1.5 current), cell line stably expressing human Nav1.5, automated patch clamp; format: cell-based; details: 10 μmol/L compound; change of the area under the curve of Nav1.5 current (Test Result 1)
Sequence (Q14524 1-2015 isoform Q14524-2): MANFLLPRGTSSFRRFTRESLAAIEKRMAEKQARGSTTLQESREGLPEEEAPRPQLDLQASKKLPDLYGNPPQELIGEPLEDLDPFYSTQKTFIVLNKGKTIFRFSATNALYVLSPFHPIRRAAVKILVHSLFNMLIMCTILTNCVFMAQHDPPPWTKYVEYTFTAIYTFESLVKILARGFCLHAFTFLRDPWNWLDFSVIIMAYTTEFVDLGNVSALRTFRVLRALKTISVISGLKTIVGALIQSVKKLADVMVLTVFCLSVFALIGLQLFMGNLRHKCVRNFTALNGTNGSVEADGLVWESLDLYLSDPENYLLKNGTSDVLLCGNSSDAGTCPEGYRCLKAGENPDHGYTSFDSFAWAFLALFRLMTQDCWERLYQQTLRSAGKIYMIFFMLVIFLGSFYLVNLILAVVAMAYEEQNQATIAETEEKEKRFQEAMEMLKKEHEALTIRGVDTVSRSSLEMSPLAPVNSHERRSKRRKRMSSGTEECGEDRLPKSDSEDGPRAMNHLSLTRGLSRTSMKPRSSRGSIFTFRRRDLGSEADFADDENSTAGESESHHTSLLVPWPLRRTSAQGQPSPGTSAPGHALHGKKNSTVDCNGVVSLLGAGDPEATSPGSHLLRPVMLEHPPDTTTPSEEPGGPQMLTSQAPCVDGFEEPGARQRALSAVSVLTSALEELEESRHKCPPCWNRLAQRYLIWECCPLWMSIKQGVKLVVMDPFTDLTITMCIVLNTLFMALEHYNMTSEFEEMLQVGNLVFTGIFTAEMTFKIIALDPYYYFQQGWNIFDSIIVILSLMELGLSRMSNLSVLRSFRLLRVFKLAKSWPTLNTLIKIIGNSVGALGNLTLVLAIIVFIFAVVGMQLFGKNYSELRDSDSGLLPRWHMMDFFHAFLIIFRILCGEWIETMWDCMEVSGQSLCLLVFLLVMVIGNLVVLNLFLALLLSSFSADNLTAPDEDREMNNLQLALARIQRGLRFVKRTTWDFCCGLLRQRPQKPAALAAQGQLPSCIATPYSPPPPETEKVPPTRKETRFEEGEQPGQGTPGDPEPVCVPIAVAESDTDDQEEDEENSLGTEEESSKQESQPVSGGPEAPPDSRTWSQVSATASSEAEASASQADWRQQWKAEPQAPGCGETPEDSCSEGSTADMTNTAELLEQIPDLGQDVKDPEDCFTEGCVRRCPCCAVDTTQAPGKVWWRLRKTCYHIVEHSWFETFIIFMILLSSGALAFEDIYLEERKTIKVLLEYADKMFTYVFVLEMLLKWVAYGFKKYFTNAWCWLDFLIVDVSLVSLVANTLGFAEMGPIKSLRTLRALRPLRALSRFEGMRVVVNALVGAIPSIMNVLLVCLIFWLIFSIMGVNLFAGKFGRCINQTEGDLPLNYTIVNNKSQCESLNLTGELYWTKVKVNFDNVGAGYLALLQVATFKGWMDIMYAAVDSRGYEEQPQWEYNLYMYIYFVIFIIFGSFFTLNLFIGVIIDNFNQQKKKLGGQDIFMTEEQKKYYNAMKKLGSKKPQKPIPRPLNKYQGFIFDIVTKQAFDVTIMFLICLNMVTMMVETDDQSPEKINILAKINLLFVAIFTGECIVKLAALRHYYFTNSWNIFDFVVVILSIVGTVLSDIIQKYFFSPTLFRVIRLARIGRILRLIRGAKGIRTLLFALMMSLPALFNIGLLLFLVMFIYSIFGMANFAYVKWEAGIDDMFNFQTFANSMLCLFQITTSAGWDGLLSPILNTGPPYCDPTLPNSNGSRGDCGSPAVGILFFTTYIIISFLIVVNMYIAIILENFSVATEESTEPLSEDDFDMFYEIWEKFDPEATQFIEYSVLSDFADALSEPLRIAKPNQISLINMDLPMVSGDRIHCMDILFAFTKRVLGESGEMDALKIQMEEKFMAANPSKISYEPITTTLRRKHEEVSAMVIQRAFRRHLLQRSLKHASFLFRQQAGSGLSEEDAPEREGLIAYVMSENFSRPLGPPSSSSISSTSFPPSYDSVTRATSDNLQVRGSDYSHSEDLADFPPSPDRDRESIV
Numbers only here, please. The scale is %.

INSERT INTO results (compound, readout_value) VALUES
  ('CC1(C)CC=C(c2ccc(=O)n(CC(=O)N3CCN(c4cccnc4)CC3)n2)CC1 [Example 440]', 7);

If you can, please state the reported Nav1.5 current amplification rate (%) value of CC1CC=C(c2ccc(=O)n(CC(=O)N3CCN(c4cncc(C(F)(F)F)c4)CC3)n2)CC1 (racemic) [Example 401] .
5

If you can, please state the reported Nav1.5 current amplification rate (%) value of CC1CC=C(c2ccc(=O)n(CC(=O)N3CCC(c4ccccc4)CC3)n2)CC1 (racemic) [Example 256] .
−30

If you can, please state the reported Nav1.5 current amplification rate (%) value of CC1CCC(c2ccc(=O)n(CC(=O)N3CCc4c(N5CCOCC5)cccc43)n2)CC1 (single isomer, unassigned) [Example 535] .
10

If you can, please state the reported Nav1.5 current amplification rate (%) value of CC1CCN(c2ccc(=O)n(CC(=O)Nc3ccc(C#N)nc3)n2)CC1 [Example 51] .
31

If you can, please state the reported Nav1.5 current amplification rate (%) value of CC1CCN(c2ccc(=O)n(CC(=O)Nc3cccc(-c4cnco4)c3)n2)CC1 [Example 77] .
28

If you can, please state the reported Nav1.5 current amplification rate (%) value of O=C(Cn1nc(C2=CCC(F)(F)CC2)ccc1=O)Nc1ccn2ccnc2c1 [Example 464] .
1

If you can, please state the reported Nav1.5 current amplification rate (%) value of CC1(C)CC=C(c2ccc(=O)n(CC(=O)N3CCN(c4ccccn4)CC3)n2)CC1 [Example 439] .
−4
